assayed.target: T1, human TL1A (human, UniProt O95150 72-251, limits assumed)
T1 construct: also called tumor necrosis factor-like cytokine 1A; TNFSF15
T1 sequence (looked up): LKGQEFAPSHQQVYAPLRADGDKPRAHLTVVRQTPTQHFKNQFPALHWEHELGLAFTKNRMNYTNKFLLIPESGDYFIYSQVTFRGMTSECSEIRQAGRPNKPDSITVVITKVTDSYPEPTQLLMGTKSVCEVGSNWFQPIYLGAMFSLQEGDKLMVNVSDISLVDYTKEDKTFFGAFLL
measurement.notes: ELISA titration on plate-coated human TL1A, unpurified culture supernatant
measurement.name: Kd (pM)

>  <binder>
A165 (antibody, IgG1, V domains shown) VH: QVQLVQSGAEVKKPGASVKVSCKASGFDIQDTYMHWVRQAPGQGLEWIGRIDPASGHTKYDPKFQVRATITTDTSTSTAYLELSSLRSEDTAVYYCARSGGLPDVWGQGTTVTVSS VL: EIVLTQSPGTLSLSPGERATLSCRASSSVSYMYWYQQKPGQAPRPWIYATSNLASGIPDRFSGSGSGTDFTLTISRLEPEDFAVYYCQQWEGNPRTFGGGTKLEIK

>  <measurement.name>
Kd

>  <val>
59

$$$$
>  <binder>
A157 (antibody, IgG1, V domains shown) VH: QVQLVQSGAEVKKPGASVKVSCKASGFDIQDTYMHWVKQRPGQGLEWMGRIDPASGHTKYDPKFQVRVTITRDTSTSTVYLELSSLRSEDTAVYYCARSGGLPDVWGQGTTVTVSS VL: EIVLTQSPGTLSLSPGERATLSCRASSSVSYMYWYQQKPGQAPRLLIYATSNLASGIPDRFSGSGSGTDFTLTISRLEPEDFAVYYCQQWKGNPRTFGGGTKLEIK

>  <measurement.name>
Kd

>  <val>
69

$$$$
>  <binder>
A164 (antibody, IgG1, V domains shown) VH: QVQLVQSGAEVKKPGASVKVSCKASGFDIQDTYMHWVRQRPGQGLEWMGRIDPASGHTKYDPKFQVRVTMTTDTSTSTAYLELSSLRSEDTAVYYCARSGGLPDVWGQGTTVTVSS VL: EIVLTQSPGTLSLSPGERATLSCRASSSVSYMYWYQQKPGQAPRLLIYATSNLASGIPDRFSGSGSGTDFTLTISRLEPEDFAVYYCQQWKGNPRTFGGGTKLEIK

>  <measurement.name>
Kd

>  <val>
58

$$$$
>  <binder>
A221 (antibody, IgG1, V domains shown) VH: QVQLVQSGAEVKKPGASVKVSCKASGFDIQDTYMHWVKQRPGQGLEWMGRIDPASGHTKYDPKFQVRATITRDTSTSTAYLELSSLRSEDTAVYYCARSGGLPDVWGQGTTVTVSS VL: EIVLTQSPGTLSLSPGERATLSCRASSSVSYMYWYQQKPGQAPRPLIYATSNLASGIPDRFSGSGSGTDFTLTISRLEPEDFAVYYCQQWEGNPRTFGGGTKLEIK

>  <measurement.name>
Kd

>  <val>
51

$$$$
>  <binder>
A202 (antibody, IgG1, V domains shown) VH: EVQLVQSGAEVKKPGASVKVSCKASGFDIQDTYMHWVRQAPGQGLEWMGRIEPASGHIKYDPKFQGRATMTRDTSTSTVYMELSSLRSEDTAVYYCARSGGLPDWWGQGTTVTVSS VL: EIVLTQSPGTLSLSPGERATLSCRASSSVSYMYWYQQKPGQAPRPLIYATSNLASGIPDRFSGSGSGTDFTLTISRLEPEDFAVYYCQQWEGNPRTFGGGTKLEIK

>  <measurement.name>
Kd

>  <val>
59

$$$$
>  <binder>
A213 (antibody, IgG1, V domains shown) VH: QVQLVQSGAEVKKPGASVKVSCKASGFDIQDTYMHWVRQRPGQGLEWMGRIDPASGHTKYDPKFQVRVTITTDTSTSTVYMELSSLRSEDTAVYYCARSGGLPDVWGQGTTVTVSS VL: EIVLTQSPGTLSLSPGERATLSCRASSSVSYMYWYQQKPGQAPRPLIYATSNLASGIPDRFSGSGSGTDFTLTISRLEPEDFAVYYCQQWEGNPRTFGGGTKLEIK

>  <measurement.name>
Kd

>  <val>
49

$$$$
>  <binder>
A178 (antibody, IgG1, V domains shown) VH: QVQLVQSGAEVKKPGASVKVSCKASGFDIQDTYMHWVRQAPGQGLEWMGRIDPASGHIKYDPKFQGRATMTRDTSTSTVYMELSSLRSEDTAVYYCARSGGLPDWWGQGTTVTVSS VL: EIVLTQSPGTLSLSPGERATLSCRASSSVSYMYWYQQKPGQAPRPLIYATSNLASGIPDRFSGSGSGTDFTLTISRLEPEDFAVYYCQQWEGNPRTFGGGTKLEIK

>  <measurement.name>
Kd

>  <val>
43

$$$$
>  <binder>
A184 (antibody, IgG1, V domains shown) VH: QVQLVQSGAEVKKPGASVKVSCKASGFDIQDTYMHWVKQRPGQGLEWIGRIDPASGHTKYDPKFQVRATITRDTSTSTAYLELSSLRSEDTAVYYCARSGGLPDVWGQGTTVTVSS VL: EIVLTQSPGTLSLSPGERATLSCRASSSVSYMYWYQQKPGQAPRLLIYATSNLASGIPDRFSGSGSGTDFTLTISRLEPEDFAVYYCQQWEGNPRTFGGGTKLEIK

>  <measurement.name>
Kd

>  <val>
61

$$$$
>  <binder>
A171 (antibody, IgG1, V domains shown) VH: QVQLVQSGAEVKKPGASVKVSCKASGFDIQDTYMHWVRQAPGQGLEWMGRIDPASGHIKYDPKFQGRATITTDTSTSTVYMELSSLRSEDTAVYYCARSGGLPDWWGQGTTVTVSS VL: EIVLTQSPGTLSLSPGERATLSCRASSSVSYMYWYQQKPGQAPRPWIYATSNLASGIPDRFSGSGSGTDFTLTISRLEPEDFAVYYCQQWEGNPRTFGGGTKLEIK

>  <measurement.name>
Kd

>  <val>
50

$$$$
>  <binder>
A195 (antibody, IgG1, V domains shown) VH: EVQLVQSGAEVKKPGASVKVSCKASGFDIQDTYMHWVRQAPGQGLEWMGRIEPASGHIKYDPKFQGRATITTDTSTSTVYMELSSLRSEDTAVYYCARSGGLPDWWGQGTTVTVSS VL: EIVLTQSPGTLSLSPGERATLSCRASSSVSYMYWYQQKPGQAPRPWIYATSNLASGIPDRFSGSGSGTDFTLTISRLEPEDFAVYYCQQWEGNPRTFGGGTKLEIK

>  <measurement.name>
Kd

>  <val>
56

$$$$
